# System: kochia
# assay_name: Test A postemergence
# Type: in vivo, Bassia scoparia
# test_settings: 500 g ai/ha, Postemergence; 0 to 100 scale
experimental_endpoint: Plant response rating, Kochia

Cc1cccc2c1O[C@@H](C)CN2C(=O)c1cccc(-n2ncnc2C(C)C)c1    0
Cc1cccc2c1O[C@@H](C)CN2C(=O)c1ccc(F)c(-n2cncn2)c1    60
Cc1cc(F)cc2c1OC(C)CN2C(=O)c1cccc(-n2cncn2)c1 (stereo not shown)    20

Proceed to the following item.
Memo: Cc1cccc2c1O[C@@H](C)CN2C(=O)c1cccc(-n2cnc(C(C)C)n2)c1 , reported Plant response rating, Kochia: 90

* * *

# Test system: corn
# assay_name: Test C preemergence
# Format: in vivo, Zea mays
# test_settings: Preemergence, 125 g ai/ha; 0 to 100 scale, 0 no effect, 100 complete control
# Description: […]
Plant response rating, Corn overview
I only need the number, thanks.

Memo: CCOC[C@H]1CN(C(=O)c2cc(-n3cnc(C(C)C)n3)ccc2OC)c2cccc(Cl)c2O1 , reported Plant response rating, Corn: 20

Memo: CCOC[C@H]1CN(C(=O)c2cc(-n3cnc(C(C)C)n3)cc3c2OCO3)c2cccc(Cl)c2O1 , reported Plant response rating, Corn: 0

* * *

# Test system: corn
# assay_name: Test C preemergence
# Assay type: in vivo, Zea mays
# test_settings: 500 g ai/ha, preemergence; 0 to 100 scale (0 no effect, 100 complete control)
experimental_endpoint: Corn plant response rating
I only need the number, thanks.

Here are 2 molecules together with their reported answers.
COC(C)c1ncn(-c2ccc(C)c(C(=O)N3CC(C)Oc4c(Cl)cccc43)c2)n1 (mixture of isomers)    30
Cc1cccc2c1OC(C(F)(F)F)CN2C(=O)c1cccc(-n2cnc(C(C)C)n2)c1 (racemic) [Compound 301]    0

Proceed to the following item.
Memo: CCOC[C@H]1CN(C(=O)c2cc(-n3cnc(C4CCC4)n3)cc3c2OCO3)c2cccc(Cl)c2O1 , reported Corn plant response rating: 0

* * *

# Tested on: ryegrass, Italian
# assay_name: Test C postemergence
# Format: in vivo, Lolium multiflorum
# test_settings: 125 g ai/ha, postemergence, 10 days; 0 to 100 scale, 0 no effect, 100 complete control
Plant response rating, Ryegrass, Italian overview
I only need the number, thanks.

Memo: COc1ccc(-n2cnc(C(C)(C)O)n2)cc1C(=O)N1C[C@H](C)Oc2c(C)cccc21 , reported Plant response rating, Ryegrass, Italian: 90

* * *

# System: barnyardgrass
# assay_name: Test C preemergence
# Format: in vivo, Echinochloa crusgalli
# test_settings: 500 g ai/ha, preemergence; 0 to 100 scale (0 no effect, 100 complete control)
Barnyardgrass plant response rating overview
I only need the number, thanks.

Here are 2 molecules together with their reported answers.
CC(C)Oc1ncn(-c2cccc(C(=O)N3C[C@H](C)Oc4c(Cl)cccc43)c2)n1    40
Cc1cccc2c1O[C@@H](C)CN2C(=O)c1cccc(-n2cnc(N(C)S(C)(=O)=O)n2)c1    80

Memo: CCOC[C@H]1CN(C(=O)c2cc(-n3cnc(CC)n3)ccc2C)c2cccc(Cl)c2O1 , reported Barnyardgrass plant response rating: 80

Memo: Cc1ccc(-n2cnc(C(C)C)n2)cc1C(=O)N1CC(C(F)(F)F)Oc2c(Cl)cccc21 (single isomer, unassigned) [Compound 291] , reported Barnyardgrass plant response rating: 100

Memo: Cc1ncnn1-c1cc(C(=O)N2CC(C(F)(F)F)Oc3c(Cl)cccc32)ccn1 (racemic) , reported Barnyardgrass plant response rating: 0

Memo: Cc1ccc(-n2cnc(C(C)C)n2)cc1C(=O)N1CC(C(F)(F)F)Oc2c(Cl)cccc21 (single isomer, unassigned) [Compound 292] , reported Barnyardgrass plant response rating: 90

Memo: Cc1cccc2c1OC(C(F)(F)F)CN2C(=O)c1cccc(-n2cnc(C(C)C)n2)c1 (single isomer, unassigned) [Compound 303] , reported Barnyardgrass plant response rating: 100
